# maps each entry to its normalized RNA/DNA level with ligand (log10)
B1: library; a variant is named by its letters at N, in order (parent)
chain: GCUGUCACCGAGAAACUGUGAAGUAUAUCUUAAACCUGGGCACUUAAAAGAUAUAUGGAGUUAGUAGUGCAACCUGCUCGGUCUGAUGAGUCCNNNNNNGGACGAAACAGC

# Variants of: B1
# run.description: normalized RNA/DNA level with ligand (relative to sTRSVctl = 100) (log10 (% of sTRSVctl)); HEK293T; ligand: cyclic di-GMP (c-di-GMP-II aptamer); ligand concentration (+) RNA-Seq: 1 mM; higher = less ribozyme self-cleavage, higher mRNA level
# condition.details: reporter: mCherry (pCS4076), ligand present: yes
observable: normalized RNA/DNA level with ligand (log10)

> print(dat)
    variant.notation  assay.result
 1            GCGUGG          1.78
 2            UUUCCA           1.9
 3            GUUGCC          1.87
 4            ACCUGA          1.72
 5            CCCUGG          1.85
 6            AGGCGU          1.76
 7            UAGCUA          1.82
 8            CUGACG           1.9
 9            AACCAA          1.63
10            GGCAAC          1.82
11            CGAAAG          1.88
12            UGUGAG          1.87
13            GUUGCU          1.84
14            GAUUUC           1.9
15            ACAGGG          1.58
16            AACAAA          1.65
17            AUUAUA          1.74
18            GCGCUG          1.84
19            GAAGCU          1.83
20            GAGUCG          1.88
21            UAUCAG          1.84
22            CGGCCA          1.73

Where these numbers come from: the supplement of paper PMC6757056
